- TEST SUMMARY: physchem
- TEST CONTEXT: octan-1-ol/water, pH 7.4
ASSAY READOUT: logD

COc1ccc(C(CN(C)C)C2(O)CCCCC2)cc1 (centres undefined) : 0.99
CN(C(=O)Cc1ccc(Cl)c(Cl)c1)C(CN1CCCC1)c1ccccc1 (centres undefined) : 3.38
CN1CC=C(c2cccc(O)c2)CC1 : 0.53
Cc1cc(N)c2cc(NC(=O)CC(=O)Nc3ccc4nc(C)cc(N)c4c3)ccc2n1 : 1.35
Cc1ccc(-c2cc(C(=O)N3CCOCC3)c3cc(C)ccc3n2)cc1 : 3.6
CCS(=O)(=O)c1ccc2c(c1)N(CCN1CCC(NCc3ccc4c(n3)NC(=O)CO4)CC1)C(=O)CO2 : -0.11
CC(C)[C@H](N)C(=O)OCCOCn1cnc2c(=O)[nH]c(N)nc21 : -1.3
CC12NC(Cc3ccccc31)c1ccccc12 (centres undefined) : 1.7
NC(=O)c1cccc(O[C@H]2C[C@H]3CC[C@@H](C2)N3Cc2ccccc2)n1 : 1.71
NCCCCCc1c[nH]c2ccc(F)cc12 : 0.6
Oc1ccc(Br)c2ccccc12 : 4.3
COc1cc2c(c(OC)c1OC)-c1ccc(O)cc1[C@@H](NC(C)=O)CC2 : 1.81
Oc1cccc(O[C@H]2C[C@H]3CC[C@@H](C2)N3Cc2ccccc2)c1 : 2.3
CNC(=O)c1ccc(Oc2ccc(C#C[C@]3(O)CN4CCC3CC4)cc2)cc1 : 1.99
Nc1nc(Nc2ccc3nc(-c4ccc(F)cc4)cc(N)c3c2)cc(-c2ccc(C(F)(F)F)cc2)n1 : 1.54
NS(=O)(=O)c1cc(C2(O)NC(=O)c3ccccc32)ccc1Cl (centres undefined) : 0.97
CCN(CC)C(=O)c1ccc([C@H](c2cccc(NC(=O)C3CC3)c2)N2CCN(Cc3ccc(F)cc3)CC2)cc1 : 3.99
Oc1ccc2c3c1O[C@H]1c4[nH]c5c(c4C[C@@]4(O)[C@@H](C2)N(CC2CC2)CC[C@]314)C[C@@]1(O)[C@H]2Cc3ccc(O)c4c3[C@@]1(CCN2CC1CC1)[C@H]5O4 : 1.41
CCCCCc1ccc(-c2nnc(N)s2)cc1 : 4.13
NC(=O)c1cn([C@@H]2O[C@H](CO)[C@@H](O)[C@H]2O)c2ncnc(N)c12 : -0.87
CNC(=O)c1ccc(N2C(=S)N(c3ccc(C#N)c(C(F)(F)F)c3)C(=O)C23CCC3)cc1F : 3.3
O=C(O)c1cn(Cc2ccccc2)c2ccccc12 : 1.19
O=C(O)c1cn(C2CC2)c2cc(=[N+]3CCN(C(=O)CC[N+](=O)[O-])CC3)c(F)cc-2c1[O-] : 0.22
Cc1cccc([C@H](C)c2c[nH]c(=S)[nH]2)c1C : 2.9
O=C(NCc1ccncn1)c1ccc(Oc2ccc(C#C[C@@]3(O)CN4CCC3CC4)cc2)cc1 : 1.77
NC(=O)c1cccc(O[C@H]2C[C@H]3CC[C@@H](C2)N3Cc2ccccc2)c1 : 1.61
O=C(NCC1CCOCC1)c1nc(OS(=O)(=O)CCC(F)(F)F)ccc1NC(=O)c1ccc(Cn2ccnn2)c2ccccc12 : 4.2
Cc1ccc2c(c1)C1(CCN(CCc3nc(-c4ccccc4)oc3C)CC1)OC(=O)N2 : 4.2
NC(=O)c1ccc(O[C@H]2C[C@H]3CC[C@@H](C2)N3Cc2ccccc2)nc1 : 1.25
CCN(CC)c1ncnc2c1ncn2Cc1c(Cl)cccc1Cl : 1.25
O=C(O)CCCc1ccc(N(CCCl)CCCl)cc1 : 1.47
N#Cc1ccc2c(c1)N(CCN1CCC(NCc3ccc4c(n3)NC(=O)CO4)CC1)C(=O)CO2 : 0.23
CNC1=Nc2ncccc2C(c2ccco2)=NC1c1ccns1 (centres undefined) : 1.44
O=C1C(=O)c2ccccc2-c2ccccc21 : 2.6
O=C1COc2ccc(CNC3CCN(CCN4C(=O)COc5ccc(O)cc54)CC3)nc2N1 : 0.52
N#Cc1nc(N2CCOCC2)nc(N2CCOCC2)n1 : 1.51
CC(=O)[C@H]1CC[C@H]2[C@@H]3CCC4=CC(=O)CC[C@]4(C)[C@H]3CC[C@]12C : 3.94
O=C(Cc1c(C(=O)O)[nH]c2ccccc12)Nc1cccc(C(F)(F)F)c1 : 1.33
CCC[C@@H](CN1CCCC1)N(C)C(=O)Cc1ccc(Cl)c(Cl)c1 : 2.27
